protocol-description: Toxicity in healthy mouse administered as single peroral dose measured after 14 days
Format: organism-based
assay-setup: in vivo, po
readout-type: LD50 at 336 h

O=C(O)c1cc(F)c(F)cc1O ... > 300 mg/kg
O=C(O)c1c(O)c(F)c(F)c(F)c1F ... 100 mg/kg
Nc1ccc(C(=O)O)c(O)c1 ... 4000 mg/kg
NNC(=O)c1ccncc1 ... 100 mg/kg
O=C(O)c1cc(F)c(F)c(F)c1O ... > 100 mg/kg

Q) Query: LD50 at 336 h; subject: O=C(O)c1ccc(F)c(F)c1O
A) > 150 mg/kg
